# EXPERIMENTAL SYSTEM: hnaNOS (Homo sapiens, UniProt P29475)
Structures can show the parent of a compound that is named as a salt.
MEASUREMENT LABEL: pIC50
pIC50 (log units): -log10 of the concentration in mol/L.

Query: Lab note: need pIC50 with hnaNOS (Homo sapiens, UniProt P29475) for entry Cc1noc(=O)n1CCCC[C@H](N)C(=O)O [Example 2, monohydrochloride] , please look it up.
Reply: 3.80
